Target: T1, human IL-23 (Sino Biological, CT048-H08H) (human, UniProt Q9NPF7 20-189; P29460 23-328)
T1 construct: also called human IL-23 protein; Human IL-23 p19
T1 sequence (looked up) 1: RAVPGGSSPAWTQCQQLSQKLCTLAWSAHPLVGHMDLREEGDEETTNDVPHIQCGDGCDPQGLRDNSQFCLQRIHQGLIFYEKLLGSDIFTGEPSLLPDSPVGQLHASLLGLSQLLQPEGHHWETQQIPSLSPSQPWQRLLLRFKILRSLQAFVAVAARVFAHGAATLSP
T1 sequence (looked up) 2: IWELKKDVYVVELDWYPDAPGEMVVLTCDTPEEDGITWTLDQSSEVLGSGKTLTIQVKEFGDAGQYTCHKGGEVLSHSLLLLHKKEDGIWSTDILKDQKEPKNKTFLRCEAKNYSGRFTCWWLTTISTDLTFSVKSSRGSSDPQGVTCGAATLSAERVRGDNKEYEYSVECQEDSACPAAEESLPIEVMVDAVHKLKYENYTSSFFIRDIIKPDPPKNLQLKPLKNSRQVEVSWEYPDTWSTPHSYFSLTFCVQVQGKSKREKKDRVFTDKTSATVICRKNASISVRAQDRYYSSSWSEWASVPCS
Experiment: SPR (Biacore), Protein A capture of sample, 1:1 model
Here the recorded koff is given for each entry.
The response must be a number in s⁻¹ with no trailing unit.

- binder: "Hu38-7 (antibody, human IgG1, kappa, L234A L235A, V domains shown, humanized mAb38, IgG1/kappa) VH: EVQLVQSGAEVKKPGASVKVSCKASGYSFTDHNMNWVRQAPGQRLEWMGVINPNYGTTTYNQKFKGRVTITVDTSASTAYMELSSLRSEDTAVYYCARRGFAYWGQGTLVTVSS VL: DIVITQTPLSLPVTPGEPASISCRSSKSLLYKDGKTYLNWFLQRPGQSPQLLIYLMSTRASGVPDRFSGSGSGTDLTLKISRVEAEDVGVYYCQQIAEYPFTFGSGTKLEIKR"
  readout_units: "s⁻¹"
  observed_measurement: "7.41e-05"

Now turn to the next binder.
query: Look at this binder and give its reported koff. Hu38-16 (antibody, human IgG1, kappa, L234A L235A, V domains shown, humanized mAb38, IgG1/kappa) VH: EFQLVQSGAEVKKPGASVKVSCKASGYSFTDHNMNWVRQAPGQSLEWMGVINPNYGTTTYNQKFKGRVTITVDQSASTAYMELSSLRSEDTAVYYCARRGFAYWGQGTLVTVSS VL: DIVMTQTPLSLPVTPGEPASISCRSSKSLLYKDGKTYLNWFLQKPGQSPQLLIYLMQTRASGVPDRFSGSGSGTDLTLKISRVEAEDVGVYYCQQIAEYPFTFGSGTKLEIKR
result: 5.49e-05

Origin of measurements: patent US20240400670A1
